Source of measurements: ChEMBL document CHEMBL1201862

Each entry below lists one item and its recorded GI50 value.
# Test system: NCI-H23
# test_protocol: NCI tumour cell line growth inhibition, 48 h
Calls of active or inactive are those of the source. Rule as the data show it: active = GI50 up to about 1.1 µM and inactive = higher.

Observe how each entry below is paired with its result.
mol | GI50
COC(=O)[C@@H]1[C@H](O)[C@H](C)[C@H](O)[C@H](C)/C=C\C=C(\C)C(=O)Nc2c(C)c(OC(C)=O)c3c(c2O)C(=O)C(C)=C2OCOC(=C23)/C(C)=C/[C@@H](O)[C@H](O)[C@@H](C)[C@H]1OC(C)=O | > 100 µM (inactive)
C=CNC(=S)n1nc(-c2ccccc2NC(=O)C(F)(F)F)c(=O)n(C(=S)NC=C)c1=S | 26.7 µM (inactive)

Now, please, on to the next compound.
INPUT: Need GI50, item CN(Cc1cc(C(C)(C)C)cc(Br)c1O)Cc1cc(C(C)(C)C)cc(Br)c1O
OUTPUT: 3.15 µM (inactive)

----------
Each entry below lists one item and its recorded GI50 value.
# Test system: SNB-19
# test_protocol: NCI tumour cell line growth inhibition, 48 h
The source made the active and inactive calls. Rule as the data show it: active = GI50 up to about 1.1 µM and inactive = higher.

Observe how each entry below is paired with its result.
compound | GI50
CCN(CC)CCN(/C(=N/c1ccccc1)N1CCCCC1)c1ccccc1 | 17.8 µM (inactive)
CCCCc1c(N(C)C)c(OC(C)=O)c(-c2cn(C)c3ccccc23)oc1=O | 28.7 µM (inactive)
O=C(O)C1C2CCC(C2)C1c1ccccc1 (centres undefined) | > 100 µM (inactive)

Now, please, on to the next compound.
INPUT: Notebook: pull reported GI50 for SNB-19, entry NC(=O)NNc1nc(-c2ccccc2)cs1
OUTPUT: > 100 µM (inactive)

----------
Each entry below lists one item and its recorded GI50 value.
# System: MDA-N
# test_protocol: NCI tumour cell line growth inhibition, 48 h
Active and inactive are the calls of the source. Cut-off read from the data, not from the text of the source: active = GI50 up to about 1.1 µM and inactive = higher.

Observe how each entry below is paired with its result.
molecule | GI50
CN(/N=C(\C(=O)O)c1ccccc1)C1=NCCCN1 | > 100 µM (inactive)
CC1(C)OC(=O)C(C)(C)OC1=O | > 100 µM (inactive)
CC1CC2OC(=N)C1(C#N)C2(C#N)C#N (stereo not given) | 16.3 µM (inactive)

INPUT: Notebook: pull reported GI50 for MDA-N, entry C[C@H]1O[C@@H](C(C)(C)C)OC(=O)[C@@H]1C(OC(=O)c1ccccc1)c1cccc2ccccc12 (stereo not given in full)
OUTPUT: > 100 µM (inactive)

INPUT: Notebook: pull reported GI50 for MDA-N, entry CC1=N[C@@](C)(C2CC3C=CC2C3=O)COC1=O (stereo not given in full)
OUTPUT: > 100 µM (inactive)

----------
Each entry below lists one item and its recorded GI50 value.
# Test system: MDA-N
# test_protocol: NCI tumour cell line growth inhibition, 48 h
Active and inactive are the calls of the source. Rule as the data show it: active = GI50 up to about 1.1 µM and inactive = higher.

mol | experimental_target | value
CCN(CC)CCCNc1nnc(C)c2[nH]c3ccccc3c12 | MDA-N | 13.7 µM (inactive)

INPUT: Need GI50, item O=S(=O)(O)c1cc(Cl)c(O)c2ncc(Cl)cc12
OUTPUT: > 100 µM (inactive)

INPUT: Need GI50, item COc1ccc(OC)c(NC(=O)c2c(Cl)c(Cl)c(Cl)c(Cl)c2-c2nc3ccccc3[nH]2)c1
OUTPUT: > 100 µM (inactive)

INPUT: Need GI50, item CN(C)CCNC(=O)c1cccc2cc([N+](=O)[O-])ccc12
OUTPUT: 1.98 µM (inactive)

INPUT: Need GI50, item O=C(CNc1ccccc1[N+](=O)[O-])Nn1cnc2ccc(S(=O)(=O)Nc3ccccc3[N+](=O)[O-])cc2c1=O
OUTPUT: > 100 µM (inactive)
